- Test system: 22RV1 cells
- test_description: MTT antiproliferative assay, 22RV1 cells
- Format: cell-based
- condition_details: Homo sapiens, 22Rv1, 72 h, MTT assay, exposure for 72 h
parameter_measured: pIC50
One number for each entry, as −log10 of the molar value.

COc1cc(N(Cc2ccncc2)C(=O)CSc2nc3ccccc3s2)cc(OC)c1OC [Compound 12b] : 5.29
COc1cc(N(Cc2c(C)noc2C)C(=O)CSc2nc3ccccc3s2)cc(OC)c1OC [Compound 12a] : 5.67
COc1cc(N(Cc2ccc(C)cc2)C(=O)CSc2nc3ccccc3s2)cc(OC)c1OC [Compound 9e] : 5.08

Lab note: 22RV1 cells assay, enter pIC50 for COc1cc(N(Cc2ccc3ccccc3c2)C(=O)CSc2nc3ccccc3s2)cc(OC)c1OC [Compound 12d] here
5.16

----------
Assignment: determine reported IC50 for the given molecules.
- Tested on: 22RV1 cells
- test_description: MTT antiproliferative assay, 22RV1 cells
- Format: cell-based
- condition_details: Homo sapiens, 22Rv1, 72 h, MTT assay, exposure for 72 h
- Description: PC3, C42B, 22RV1, and LNCAP cell lines were cultured in an atmosphere containing 5% CO2 at 37 °C, with RPMI-1640 medium with 10% foetal bovine serum, 100 U/ml penicillin and 0.1 mg/ml streptomycin. Cells were seeded at a density of 1500 per well in 96-well plates for 72 h. […] 150 μL DMSO was added to each well to dissolve the formazan after removing the liquid, the absorbance was determined at 570 nm. […]
Answers are plain numbers, in µM.

Worked cases, answers included:
COc1cc(N(Cc2ccc(Br)cc2)C(=O)CSc2nc3ccccc3s2)cc(OC)c1OC : 6.2
COc1cc(N(Cc2ccc(Cl)nc2)C(=O)CSc2nc3ccccc3s2)cc(OC)c1OC [Compound 12c] : 11.8
COc1cc(N(Cc2ccccc2)C(=O)CSc2nc3ccccc3s2)cc(OC)c1OC : 9.06
COc1cc(N(Cc2ccc(F)cc2)C(=O)CSc2nc3ccccc3s2)cc(OC)c1OC : 16.2
COc1ccc(CN(C(=O)CSc2nc3ccccc3s2)c2cc(OC)c(OC)c(OC)c2)cc1 : 5.24

# evaluate next
Lab note: 22RV1 cells assay, enter IC50 for `COc1cccc(CN(C(=O)CSc2nc3ccccc3s2)c2cc(OC)c(OC)c(OC)c2)c1` here
7.37

----------
- System: 22RV1 cells
- test_description: MTT antiproliferative assay, 22RV1 cells
- Format: cell-based
- condition_details: Homo sapiens, 22Rv1; MTT assay, exposure for 72 h
parameter_measured: IC50 (µM)
Numbers only, in µM.

Return IC50 for the following compound: COc1ccc(CN(C(=O)CSc2nc3ccccc3o2)c2cc(OC)c(OC)c(OC)c2)cc1 [Compound 4, reference compound]
6.48

----------
- test_description: Cytotoxicity against normal prostatic cell line RWPE-1
- Type: cell-based
- condition_details: RWPE-1 normal prostatic cells; normal human prostatic cell line
parameter_measured: IC50 at 72 h

Return IC50 at 72 h for the following molecule: COc1cc(N(Cc2c(C)noc2C)C(=O)CSc2nc3ccccc3s2)cc(OC)c1OC [Compound 12a]
> 20 µM

----------
Assignment: determine reported pIC50 for the given molecules.
- Tested on: LNCAP cells
- test_description: MTT antiproliferative assay, LNCAP cells
- Assay type: cell-based
- condition_details: Homo sapiens
Numbers only, as −log10 of the molar value.

COc1cc(N(Cc2c(C)noc2C)C(=O)CSc2nc3ccccc3s2)cc(OC)c1OC [Compound 12a] : 5.37

Return pIC50 for the following molecule: COc1ccc(CN(C(=O)CSc2nc3ccccc3o2)c2cc(OC)c(OC)c(OC)c2)cc1 [Compound 4, reference compound]
5.00
